All values here come from the NIST ThermoML archive (doi:10.1021/je400539h).

Settings: 298.15 K; 101 kPa; Liquid
Label 1.0 when viscosity is strictly below 1 mPa·s; otherwise label 0.0.

Recorded results for 4 molecules are shown here.
viscosity under 1 mPa·s? Item: C1CCOC1 [tetrahydrofuran] 1.0

What do you have for CCCCCCOC(C)=O [hexyl ethanoate] ? 0.0

What do you have for C1COCCO1 [1,4-dioxane] ? 0.0

What do you have for COc1ccccc1 [anisole] ? 1.0

Next molecule, please.
viscosity under 1 mPa·s? Item: C=COCCCC [1-(ethenyloxy)butane] 1.0

---

Details: 313.15 K; 101 kPa; Liquid
ENDPOINT NAME: speed of sound (m/s)
Answers are plain numbers, in m/s.

Take a look at these entries with their results.
// lookup speed of sound for COc1ccccc1 [anisole] 1348

What do you have for C=COCCCC [1-(ethenyloxy)butane] ? 1060

What do you have for CCCCCCOC(C)=O [hexyl ethanoate] ? 1176

What do you have for C1CCOC1 [tetrahydrofuran] ? 1212

Okay, now this compound:
// lookup speed of sound for C1COCCO1 [1,4-dioxane] 1304

---

Would you kindly list mass density for each of these compounds?
Conditions: 313.15 K; 101 kPa; Liquid
± gives the expanded uncertainty stated by the source.
Include the unit after the number when you answer.

Take a look at these entries with their results.
// lookup mass density for C=COCCCC [1-(ethenyloxy)butane] 763.3 ± 2 kg/m3

What do you have for COc1ccccc1 ? 980 ± 1 kg/m3

What do you have for C1COCCO1 ? 1011.1 ± 1 kg/m3

What do you have for CCCCCCOC(C)=O [hexyl ethanoate] ? 855 ± 1.5 kg/m3

Okay, now this compound:
// lookup mass density for C1CCOC1 [tetrahydrofuran] 866.9 ± 1.5 kg/m3

---

Conditions: 298.15 K; 101 kPa; Liquid
Numbers after ± are expanded uncertainties.
ENDPOINT NAME: speed of sound

Take a look at these entries with their results.
// lookup speed of sound for COc1ccccc1 [anisole] 1396 ± 12 m/s

What do you have for CCCCCCOC(C)=O [hexyl ethanoate] ? 1236 ± 11 m/s

What do you have for C1CCOC1 [tetrahydrofuran] ? 1268 ± 11 m/s

What do you have for C1COCCO1 [1,4-dioxane] ? 1328 ± 11 m/s

Okay, now this molecule:
// lookup speed of sound for C=COCCCC [1-(ethenyloxy)butane] 1096 ± 10 m/s

---

Would you kindly list viscosity for each of these compounds?
Conditions: 303.15 K; 101 kPa; Liquid
One number for each entry, in mPa·s.

// lookup viscosity for CCCCCCOC(C)=O [hexyl ethanoate] 0.982

// each listed compound needs a value for viscosity
1. C1CCOC1 [tetrahydrofuran]
2. C=COCCCC [1-(ethenyloxy)butane]
3. C1COCCO1 [1,4-dioxane]
4. COc1ccccc1 [anisole]

1. 0.439
2. 0.387
3. 1.087
4. 0.917

---

Conditions: 308.15 K; 101 kPa; Liquid
Would you kindly list mass density for each of these compounds?
One number for each entry, in kg/m3.

// lookup mass density for COc1ccccc1 984.6

What do you have for C1COCCO1 ? 1017.4

What do you have for C=COCCCC [1-(ethenyloxy)butane] ? 768.2

// each listed compound needs a value for mass density
1. CCCCCCOC(C)=O [hexyl ethanoate]
2. C1CCOC1 [tetrahydrofuran]

1. 859.8
2. 873

---

Settings: 303.15 K; 101 kPa; Liquid
Would you kindly list speed of sound for each of these compounds?
One number for each entry, in m/s.

// lookup speed of sound for CCCCCCOC(C)=O [hexyl ethanoate] 1216

What do you have for C=COCCCC [1-(ethenyloxy)butane] ? 1084

What do you have for COc1ccccc1 ? 1380

// each listed compound needs a value for speed of sound
1. C1COCCO1
2. C1CCOC1 [tetrahydrofuran]

[1320, 1248]
